target_system: human GIP receptor (hGIPR) (Homo sapiens, UniProt P48546)
Construct: expressed in transfected cells
Sequence (P48546 22-466): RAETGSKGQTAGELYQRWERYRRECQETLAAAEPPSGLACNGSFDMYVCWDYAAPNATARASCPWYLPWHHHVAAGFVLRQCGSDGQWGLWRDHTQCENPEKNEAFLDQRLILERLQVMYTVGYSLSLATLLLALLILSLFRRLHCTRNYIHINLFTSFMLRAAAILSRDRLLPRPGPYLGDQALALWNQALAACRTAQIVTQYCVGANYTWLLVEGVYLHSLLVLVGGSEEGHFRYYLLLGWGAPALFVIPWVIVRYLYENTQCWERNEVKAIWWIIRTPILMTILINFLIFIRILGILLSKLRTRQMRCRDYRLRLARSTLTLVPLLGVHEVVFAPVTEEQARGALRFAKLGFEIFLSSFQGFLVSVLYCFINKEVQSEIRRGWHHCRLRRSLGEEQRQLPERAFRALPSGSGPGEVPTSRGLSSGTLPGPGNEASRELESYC
test_details: GIP receptor assay, method A (CRE-luciferase reporter, BHK cells)
Assay type: cell-based
test_conditions: hGIPR Potency, 1% HSA, EC50, method A, in the presence of 1% HSA
Numbered stars: 1 amine (or outer) side, 2 acyl side, 3 side chain; on linkers, the order of the positions; unused ones are H or OH. Square brackets hold non-standard residues; d marks the D form. Side chains are listed from the residue outwards. * marks the point of attachment. C18 diacid = O=C(O)CCCCCCCCCCCCCCCCC(=O)*; γGlu = O=C(O)[C@H](CCC(=O)[*:2])N[*:1]; AEEA = NCCOCCOCC(=O)O; Aib = CC(C)(N)C(=O)O
assay_endpoint: EC50 (nM)
Return type: number; implicit unit nM.

The examples below pair each entry with its known result.
{"substance": "Y[Aib]EGTFTSDYSILLEEQAAREFIEWLLAGGPSSGAPPPSGGGEASHLSTAQTQRLSAELHK([AEEA-AEEA-γGlu-C18 diacid])LATLPRTETGSGSP-NH2 [Compound 49]", "target_system": "human GIP receptor (hGIPR) (Homo sapiens, UniProt P48546)", "unit_label": "nM", "EC50": 0.0167}
{"substance": "Y[Aib]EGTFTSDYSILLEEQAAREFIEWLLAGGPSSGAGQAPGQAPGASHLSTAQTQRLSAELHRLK([AEEA-AEEA-AEEA-γGlu-C18 diacid])TLPRTETGSGSP-NH2 [Compound 111]", "target_system": "human GIP receptor (hGIPR) (Homo sapiens, UniProt P48546)", "unit_label": "nM", "EC50": 0.0122}

Problem: Which EC50 is reported for this substance? H[Aib]HGTFTSDYSILLEEQAAREFIEWLLAGGPSGGEASHLSTAQTQRLSAELHK([AEEA-AEEA-γGlu-C18 diacid])LATLPRTETGSGSP-NH2 [Compound 75]
Solution: 0.0119
